Test: CCTE_Deisenroth_AIME_384WELL_CTox_Active: Cytotoxicity Assessment (CTOX) in CCTE's 384-well Estrogen Receptor Transactivation Assay with AIME metabolic competence (metabolism positive), Deisenroth Lab (AID 2284037);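 note: chemicals first conditioned 2 h by alginate-bound induced rat liver S9 before cells; activity means signal loss indicating cell death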
Inconclusive results are not listed. Activity calls are given as the source filed them. Rule for the calls: active = hit-call score of the fitted dose curve at least 0.9, where 1 is the maximum; inconclusive = response in the unintended direction; inactive = score below 0.9.
experimental.endpoint: AC50

INSERT INTO results (molecule, readout_value) VALUES
  ('Cc1c2ccccc2c(C)c2c1ccc1ccccc12', 'inactive'),
  ('CC(C)(C)c1cc(/C=C2\SC(N)=NC2=O)cc(C(C)(C)C)c1O', 'inactive'),
  ('CCCOC(=O)c1cc(O)c(O)c(O)c1', 'inactive'),
  ('CO[C@H]1/C=C/O[C@@]2(C)Oc3c(C)c(O)c4c(O)c(c(/C=N/N5CCN(C)CC5)c(O)c4c3C2=O)NC(=O)/C(C)=C\C=C\[C@H](C)[C@H](O)[C@@H](C)[C@@H](O)[C@@H](C)[C@H](OC(C)=O)[C@@H]1C', '41.3 µM (active)'),
  ('Oc1ccc2ccccc2c1', 'inactive'),
  ('CCCCCCCCOC(=O)c1cc(O)c(O)c(O)c1', '158 µM (active)'),
  ('Cc1ccc(C(C)C)cc1', 'inactive'),
  ('O=C(Nc1ccc(Cl)cc1)Nc1ccc(Cl)c(Cl)c1', '19.8 µM (active)'),
  ('CCN(CC)C(=O)c1cc(S(=O)(=O)Cc2ccccc2)c(N2CCC(c3ccccc3)CC2)cc1N(CC)CCN(C)C', 'inactive'),
  ('OCCO', 'inactive'),
  ('O=C(O)Cn1c(=O)n(Cc2ccc(Br)cc2F)c(=O)c2ccc(Cl)cc21', 'inactive'),
  ('CCCCCCCCCCCO', 'inactive'),
  ('CC(O)CC(C)(C)O (stereo not drawn)', 'inactive');

###

Read-out: 3-Hydroxy-3-Methylglutaryl-CoA Synthase 2 (HMGCS2), HMGCS2 (gene 3158)
Experiment: LTEA_HepaRG_HMGCS2: Life Technologies and Expression Analysis (LTEA) Assay for 3-Hydroxy-3-Methylglutaryl-CoA Synthase 2 (HMGCS2) using HepaRG (AID 2283504)
Details: mRNA level, 48 h; actives raise or lower the signal
The source made the active and inactive calls. How the source made its calls: active means hit-call score of the fitted dose curve at least 0.9, where 1 is the maximum; inactive means score below 0.9.
Possible outcomes: 1.0 (active), 0.0 (inactive)

INSERT INTO results (smiles_representation, label_class) VALUES
  ('Cc1cn([C@H]2C[C@H](N=[N+]=[N-])[C@@H](CO)O2)c(=O)[nH]c1=O', 0.0),
  ('CC1(C)NC(=O)N(c2ccc([N+](=O)[O-])c(C(F)(F)F)c2)C1=O', 1.0),
  ('O=C(O)c1ccccc1-n1cc(C(=O)O)c(=O)c2cc(Nc3c(F)cc(F)cc3Cl)c(Cl)cc21', 0.0),
  ('CCCCCCCCCCCC[N+](C)(C)C', 1.0),
  ('CC1=CC(=O)/C(=C(/C)O)C(=O)O1', 0.0),
  ('CCCC(=O)OCCC(C)C', 0.0);

###

Molecular target: Voltage-gated inwardly rectifying potassium channel KCNH2 (Homo sapiens)
Assay: NVS_IC_hKhERGCh: NovaScreen (NVS) Ion Channel Assay for human Potassium Channel ERG (KhERGCh) (AID 2283333)
Results filed as inconclusive are left out. Calls of active or inactive are those of the source. How the source made its calls: active means hit-call score of the fitted dose curve at least 0.9, where 1 is the maximum; inconclusive means response in the unintended direction; inactive means score below 0.9.
Possible outcomes: active, inactive

INSERT INTO assay_data (smiles_representation, label_class) VALUES
  ('CCOC(=O)O[C@H](C)OC(=O)c1ccc2c(c1)cc(C(=O)NC1CCN(C(C)C)CC1)n2Cc1cc(-c2ccc(Cl)s2)on1', 'active'),
  ('Cc1cc(F)ccc1-c1cc(N2CC[C@@H](O)[C@H]2CO)ncc1N(C)C(=O)C(C)(C)c1cc(C(F)(F)F)cc(C(F)(F)F)c1', 'active'),
  ('COc1cc(C(=O)NC2CCN(C)CC2)ccc1Nc1ncc2c(n1)N(C1CCCC1)CC(F)(F)C(=O)N2C', 'active'),
  ('CCCCCCCCN(C)CCCCCCCC', 'inactive'),
  ('NCc1cccc(C2CCN(C(=O)c3ccc(C#Cc4ccccc4F)o3)CC2)c1', 'active'),
  ('CN(C)C(=O)C1(N2CCCCC2)CCN(CC[C@@]2(c3ccc(Cl)c(Cl)c3)CN(C(=O)c3ccccc3)CCO2)CC1', 'active');
